Tested on: HEK-293T
assay_overview: Multiplex assay against HEK293T
Format: toxicity, cell-based
settings: human, 48 h, 1 µM, compound concentration 1 uM, replicate 2
molecules and their reported Population Apoptotic (%)

[
  {
    "molecule": "CN(C)c1ccnc2sc3c(=O)n(N4CCCCCC4)cnc3c12",
    "system_tested": "HEK-293T",
    "unit_of_measure": "%",
    "Population Apoptotic (%)": 20
  },
  {
    "molecule": "COc1ccc2c(c1)C(C(=O)N(Cc1ccc(N(C)C)cc1)c1ccc(C(C)C)cc1)CCC2.Cl (stereo not drawn)",
    "system_tested": "HEK-293T",
    "unit_of_measure": "%",
    "Population Apoptotic (%)": 46
  },
  {
    "molecule": "CSCC[C@H](NC=O)C(=O)N[C@@H](CC(C)C)C(=O)N[C@@H](Cc1ccccc1)C(=O)O",
    "system_tested": "HEK-293T",
    "unit_of_measure": "%",
    "Population Apoptotic (%)": 20
  },
  {
    "molecule": "CCOc1c2c(c(OCC)c3ncccc13)CN(c1ccc(CS(=O)(=O)NC(=O)Cc3ccccc3OC)cc1C)C2=O",
    "system_tested": "HEK-293T",
    "unit_of_measure": "%",
    "Population Apoptotic (%)": 33
  },
  {
    "molecule": "CNC[C@H](O)c1ccc(O)c(O)c1 [EPINEPHRINE]",
    "system_tested": "HEK-293T",
    "unit_of_measure": "%",
    "Population Apoptotic (%)": 35
  },
  {
    "molecule": "CCCC(CCC)C(=O)O",
    "system_tested": "HEK-293T",
    "unit_of_measure": "%",
    "Population Apoptotic (%)": 36
  },
  {
    "molecule": "COc1cc(C(=O)N(CCCc2ccccc2)Cc2ccc(CC(=O)O)cc2)cc(OC)c1C",
    "system_tested": "HEK-293T",
    "unit_of_measure": "%",
    "Population Apoptotic (%)": 26
  },
  {
    "molecule": "CC[C@H]1OC(=O)[C@H](C)[C@@H](O[C@H]2C[C@@](C)(OC)[C@@H](O)[C@H](C)O2)[C@H](C)[C@@H](O[C@@H]2O[C@H](C)C[C@H](N(C)C)[C@H]2O)[C@@]2(C)CC(C)=C(O2)[C@H](C)[C@@H](O)[C@]1(C)O",
    "system_tested": "HEK-293T",
    "unit_of_measure": "%",
    "Population Apoptotic (%)": 21
  },
  {
    "molecule": "C[C@@H]1C[C@H]2[C@@H]3CCC4=CC(=O)C=C[C@]4(C)[C@@]3(F)[C@@H](O)C[C@]2(C)[C@@]1(O)C(=O)CO",
    "system_tested": "HEK-293T",
    "unit_of_measure": "%",
    "Population Apoptotic (%)": 27
  },
  {
    "molecule": "O=C(O)Cc1ccccc1Nc1c(Cl)cccc1Cl",
    "system_tested": "HEK-293T",
    "unit_of_measure": "%",
    "Population Apoptotic (%)": 33
  },
  {
    "molecule": "CCNC1(C(N)=O)CCN(c2ncnc3c2nc(-c2ccccc2Cl)n3-c2ccc(Cl)cc2)CC1",
    "system_tested": "HEK-293T",
    "unit_of_measure": "%",
    "Population Apoptotic (%)": 32
  },
  {
    "molecule": "CC1(COc2ccc3c(c2)ncn3-c2ccc3cccc(N4CCC(N)CC4)c3n2)COC1",
    "system_tested": "HEK-293T",
    "unit_of_measure": "%",
    "Population Apoptotic (%)": 47
  },
  {
    "molecule": "O=C(O)c1cc2ccccc2c(Cc2c(O)c(C(=O)O)cc3ccccc23)c1O",
    "system_tested": "HEK-293T",
    "unit_of_measure": "%",
    "Population Apoptotic (%)": 48
  },
  {
    "molecule": "COc1c(C)cc(NC(=O)c2nn(Cc3ccc(F)cc3)c3c2CN(C(=O)c2ccc[nH]2)C[C@]3(C)C(N)=O)cc1C",
    "system_tested": "HEK-293T",
    "unit_of_measure": "%",
    "Population Apoptotic (%)": 39
  },
  {
    "molecule": "Cc1nc2ccc(Oc3ccc(F)cc3)cc2c(=O)n1C[C@H]1CCCN(C(C)C)C1.Cl",
    "system_tested": "HEK-293T",
    "unit_of_measure": "%",
    "Population Apoptotic (%)": 60
  },
  {
    "molecule": "N[C@@]1(C(=O)O)CO[C@H]2[C@H](C(=O)O)[C@H]21",
    "system_tested": "HEK-293T",
    "unit_of_measure": "%",
    "Population Apoptotic (%)": 33
  },
  {
    "molecule": "Cc1ccc(C(C)(O)c2nc3ccccc3s2)c(C)c1 (stereo not drawn)",
    "system_tested": "HEK-293T",
    "unit_of_measure": "%",
    "Population Apoptotic (%)": 34
  },
  {
    "molecule": "CC(C)(C)c1ccc(S(=O)(=O)Nc2ccc(Cl)cc2C(=O)c2cc[n+]([O-])cc2)cc1",
    "system_tested": "HEK-293T",
    "unit_of_measure": "%",
    "Population Apoptotic (%)": 32
  }
]
